pKi: −log10 of the molar value.
Consider the following pKi values measured on D(3) dopamine receptor (Homo sapiens).
Sequence (P35462 whole entry): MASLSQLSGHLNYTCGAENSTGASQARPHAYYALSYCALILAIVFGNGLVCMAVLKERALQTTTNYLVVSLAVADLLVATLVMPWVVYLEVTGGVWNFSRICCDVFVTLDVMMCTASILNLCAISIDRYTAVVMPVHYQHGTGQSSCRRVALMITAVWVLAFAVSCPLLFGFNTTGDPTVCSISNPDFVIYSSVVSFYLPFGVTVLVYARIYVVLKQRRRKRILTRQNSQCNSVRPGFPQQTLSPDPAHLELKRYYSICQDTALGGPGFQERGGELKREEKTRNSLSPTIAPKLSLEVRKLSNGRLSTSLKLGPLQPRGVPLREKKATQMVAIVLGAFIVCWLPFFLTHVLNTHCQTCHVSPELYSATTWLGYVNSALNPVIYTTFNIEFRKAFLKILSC
readoutType: pKi

>>> print(df.to_string())
                                      smiles  readouttype  reading
 0  COc1ccccc1N1CCCN(CCCCNC(=O)c2cccc3c2-c2ccccc2C3=O)CC1          pKi     7.94
 1  COc1ccccc1N1CCCN(CCCCNC(=O)c2ccc(Cl)cc2)CC1          pKi     8.43
 2  COc1ccccc1N1CCCN(CCCCNC(=O)c2ccc(Cl)nc2)CC1          pKi     7.82
 3  COc1ccccc1N1CCCN(CCCCNC(=O)c2ccc(Br)s2)CC1          pKi     8.32
 4  COc1ccccc1N1CCCN(CCCCNC(=O)c2ccc(SC)cc2)CC1          pKi     8.54
 5  COc1ccccc1N1CCCN(CCCCNC(=O)c2ccc(F)cc2)CC1          pKi     8.06
 6  COc1ccccc1N1CCCN(CCCCNC(=O)c2cc3ccccc3o2)CC1          pKi     8.26
 7  O=C(NCCCCN1CCN(c2cccc(Cl)c2Cl)CC1)c1ccc2c(c1)C(=O)c1ccccc1-2          pKi     8.85
 8  COc1ccccc1N1CCCN(CCCCNC(=O)c2ccc(CCO)cc2)CC1          pKi     7.88
 9  COc1ccccc1N1CCCN(CCCCNC(=O)c2ccc(-c3ccsc3)cc2)CC1          pKi     9.15
10  COc1ccccc1N1CCCN(CCCCNC(=O)c2ccc(Br)nc2)CC1          pKi     7.75
11  COc1ccccc1N1CCCN(CCCCNC(=O)c2cc3ccccc3[nH]2)CC1          pKi     8.60
12  O=C(NC/C=C/CN1CCN(c2cccc(Cl)c2Cl)CC1)c1ccc2c(c1)Cc1ccccc1-2          pKi     8.23
